Each recorded value in this set is attributed to the supplement of paper PMC10567573.

METHOD: protein stability index of a GFP-peptide fusion (GPS, HEK-293T) (PSI 1-6); higher = more stable;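 further: 24-mer peptide tiles fused after GFP, lentivirally expressed, FACS-sorted into six equal bins by GFP/DsRed ratio, decoded by Illumina sequencing, PSI is the read-weighted mean bin number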
PARTICULARS: treatment: MLN4924 1 uM, 8 h; c terminus: a fixed tail appended
VALUE_KIND: protein stability index
One number for each entry.

Please review the following examples before continuing.
INSERT INTO measurements (polymer_sequence, value_kind, data_value) VALUES
  ('KSLSIQYLELDRLVWRNSIRSSFI [FBXO39]', 'protein stability index', 2.28),
  ('FGSFLLLLFSLTQFSVVSVVAYLA [RTN1]', 'protein stability index', 3.35),
  ('SYSLSRKKIVHYTCFDQRKRANAA [CDC14A]', 'protein stability index', 3.05);

// each listed sequence needs a value for protein stability index
1. IRLCDMRASALCDRHTKFFEEPED [PPP2R2B]
2. IQGNIEYSCPATNECEITKRRRKS [ESRRG]
3. DSLKPEQLDIEEEGRPGAATFHVG [TFE3]
4. LRGLPGERGTPGLPGPKGDDGKLG [SCARA5]

1. 3.77
2. 5.13
3. 4.96
4. 4.96

----------
Kindly state protein stability index for each of the entries shown.
METHOD: protein stability index of a GFP-peptide fusion (GPS, HEK-293T) (PSI 1-6); higher = more stable
PARTICULARS: treatment: MLN4924 1 uM, 8 h; c terminus: a fixed tail appended
One number for each entry.

Example entries begin here.
INSERT INTO results (polymer_sequence, value_kind, data_value) VALUES
  ('NEHSAHCPHTPEFSVTGGTEEKSS [RPAIN]', 'protein stability index', 5.28),
  ('QVNGHPDPFDEIILFSLPPALDWD [PTPN9]', 'protein stability index', 2.31),
  ('DGLVGMAIVGGMALGVAGLAGLIG [FIS1]', 'protein stability index', 2.09);

Hi, could you look up protein stability index for each item in my list?
1. RHRIPEPEAAVLFRQMATALAHCH [TRIB3]
2. DIHGLRKVIDDTNITRLQLETEIE [KRT18]
3. NRLASLQQENKVLKIELETYKLKC [CCDC6]
4. ASLQASIFSGAASLGYGTNVAATG [APBB1IP]
5. RVRGLGLPKLYLPTGPRRGRDELG [CDKN1A]
6. NNWDKWMAKKHKKIRLRCQKGIPP [TBC1D10A]
7. EKLQKEQKELQDVGQSLRIKEQEV [SASS6]

[2.29, 4.16, 3.23, 2.85, 3.43, 3.1, 5.29]

I have 8 sequences here; please give me protein stability index for each one.
1. KTMQSEETRVWHRRDGKWQNVHFH [CAMK2D]
2. YKPNPQIYVKLIEECTDLQKEGEF [OAS1]
3. IPPYSRASLKGYQWLKDKILSEEG [KCNAB2]
4. EMFPAAQQLYRHGKAYRFLFGFSA [JAGN1]
5. QAPIAAVLLMHMPAEQAFWCLVQI [TBC1D10A]
6. AEEAESHFSSIPDAFWWAVVSMTT [KCNA1]
7. TPLHRDKTPLHQKHAAFVTPDQKY [MYBL2]
8. VYLLGNPVVWWLNLLSIALYLLSG [POMT2]

3.14
3.53
3.02
2.31
3.06
2.1
4.08
2.96

Each of the following entries comes with a recorded value; kindly state protein stability index for each.
1. ALAHCHQHGLVLRDLKLCRFVFAD [TRIB3]
2. KGDKCKFSHDLTLERKCEKRSVYI [ZC3H15]
3. LNVFQTVSRMRTQRAFSIQTPEQY [PTPN9]
4. PYLRFGCLSCRLFYFKLTDLYKKV [CRY1]
5. MTTTFLQTSSSTFGGGSTRGGSLL [KRT15]
6. CWLPLLAGLLPPVPAQKFSALTFL [SMOC2]
7. PCSKAVMSQALKATFSGFKKEQRR [ETS2]
8. EEKKPGELKRLVESRRQQILREFE [TRIM39]

2.23
2.63
2.54
2.32
2.97
2.82
3.27
4.59

# protein stability index lookup, item SSGCFMEYLENQVIKDKDDSVDAQ [RNF180]
4.63

----------
METHOD: protein stability index of a GFP-peptide fusion (GPS, HEK-293T) (PSI 1-6); higher = more stable
PARTICULARS: treatment: DMSO; c terminus: a fixed tail appended
VALUE_KIND: protein stability index
Give bare numbers.

As a guide, the following entries are already answered.
INSERT INTO results (polymer_sequence, value_kind, data_value) VALUES
  ('FFEDGDVQRHLYLQDVIMQVADVP [ZNF511]', 'protein stability index', 2.82),
  ('ISKMEPLEIPVETITSEVIEKCTT [CRY1]', 'protein stability index', 4.08),
  ('ASLQASIFSGAASLGYGTNVAATG [APBB1IP]', 'protein stability index', 2.95),
  ('RLLGSVQQDLERSLQDASRGDPAH [PBXIP1]', 'protein stability index', 4.7),
  ('RVQQHIESKLLGSNSSRMYFTQTL [MLH1]', 'protein stability index', 2.37),
  ('DTDKLLNSASDPSLKDGLSDSDSE [PSD2]', 'protein stability index', 5.45),
  ('YPASTSQDSFEAAGNSTSGSRAGA [KCNA3]', 'protein stability index', 5.21),
  ('KTESSGIETEPTVHHLPLSTEKVV [EPB41L3]', 'protein stability index', 5.21),
  ('KEMFTVGCCVFAFLVGLLFVQRSG [SLC6A17]', 'protein stability index', 2.38),
  ('QLIDNILEESDIDRDGTINLSEFQ [CIB1]', 'protein stability index', 3.69);

Field: protein stability index. Fill in for each record below.
1. SQFSGTLMRTCERLVKEGRFVPSN [PPTC7]
2. LKRKNKQAFLDELESSDLPVALLL [MNAT1]

1. 3.12
2. 2.2

----------
METHOD: protein stability index of a GFP-peptide fusion (GPS, HEK-293T) (PSI 1-6); higher = more stable
PARTICULARS: treatment: DMSO; c terminus: a fixed tail appended
What protein stability index was measured for each of the following?
Answers are plain numbers.

Study these solved cases before continuing.
INSERT INTO measurements (polymer_sequence, value_kind, data_value) VALUES
  ('KNYFQHREFSFTLKDDIYIRYQSF [PRIM1]', 'protein stability index', 2.22),
  ('VVGWFVLFYKPGIVLLLALAKYLK [GULP1]', 'protein stability index', 2.25),
  ('SSGCFMEYLENQVIKDKDDSVDAQ [RNF180]', 'protein stability index', 4.59),
  ('HVTDPLIGCKKPVSASGKEMDWAQ [SMG5]', 'protein stability index', 3.78),
  ('SQPATPTPLQSRTSIVQAAAGGVP [PDLIM7]', 'protein stability index', 4.6),
  ('AVIYLGYCFCGWIVLGPYHVKFRS [MCOLN1]', 'protein stability index', 3.08),
  ('MASSAAGCVVIVGSGVIGRSWAML [CRYL1]', 'protein stability index', 3.7),
  ('HELMLRFKDEYKSENIKLREENEK [CCDC89]', 'protein stability index', 5.21);

State recorded protein stability index for all listed sequences.
1. GPRVGEALVSHPEVPLISFTGSQP [ALDH8A1]
2. FLESTDSFNNELKRLCGLKVEVDM [SMARCE1]
3. CMHEVHTFVSTCQAIDATVAAELL [HES6]
4. ACKSLQTRQNGIQTNKPALRAVRQ [STX5]
5. FLVLEQFLTILPEELQSWVRGHHP [ZNF232]

[3.77, 4.08, 2.8, 4.07, 2.45]

Could you tell me protein stability index for each of these sequences? They are listed below.
1. QAPIAAVLLMHMPAEQAFWCLVQI [TBC1D10A]
2. GAFYRRAQRLRPQDEPRQGCQPED [KCNG1]
3. ETSVGTYESHSTSELEDLTEPEQR [TPD52L3]

1: 3.25; 2: 5.21; 3: 5.69

For each of the sequences below, note its protein stability index.
1. PATTVTSPNSTPAKTIDTSPPVDL [SNAP91]
2. RDNGHSNRDEHSSRGYRNHRSSRE [RBMY1A1]
3. KRRPKREKHPKKPEPQQKAPLVPP [SRPK2]
4. RFCLPHLVALAEQHAVQELTKAAT [RHOBTB1]

[5.25, 5.1, 4.95, 2.12]

----------
METHOD: protein stability index of a GFP-peptide fusion (GPS, HEK-293T) (PSI 1-6); higher = more stable
PARTICULARS: treatment: MLN4924 1 uM, 8 h; c terminus: a fixed tail appended
Provide the reported protein stability index of each item.
Give bare numbers.

Reference set, count: 4
INSERT INTO results (polymer_sequence, value_kind, data_value) VALUES
  ('ITAPTEVEVMDETNCQKVLNMWCC [CSNK1G3]', 'protein stability index', 2.98),
  ('QHRKINPKNREYDRFYVINYLVRL [ZNF277]', 'protein stability index', 2.29),
  ('LYAKMIQKLADLRSLNEEHSKQYR [VDR]', 'protein stability index', 2.19),
  ('YTVSATAPGYDPETVTVTVGPAEP [CPN1]', 'protein stability index', 3.83);

Please supply protein stability index for each of the following items, keeping them in order.
1. ERKKNLTLALEALVQLRGRLTSQD [ALG2]
2. GPLPQSFDKEWVAKQTKRMLDMKV [COX4I1]
3. ENLIMFQNLANEEVRKLTQRLEEM [MATN2]
4. VRTAAIKAMLQLHERGLKLHQTIY [INTS4]
5. YGHCTAGGEGVEVELLHNTSYTRQ [SCNN1D]

[2.88, 3.86, 3.17, 2.44, 3.8]

Give me protein stability index for each of these sequences, listed below.
1. TVQHGAVYSLEPRLCGGKGGFGSM [SDE2]
2. KCLQGNADGDGGGGQCCRRQDSPS [PCDHGC5]
3. ALCVVDTIKRSSQTGEWQNIAIMT [GFOD1]
4. LKNIELFDKLALRFHGRLLFLKDV [KCTD13]

1. 2.39
2. 5.21
3. 2.2
4. 2.11
